Recorded B1R Ant. r [10 μM] % Inhibition values for a group of compounds are listed next.
- TARGET ENTITY: bradykinin 1 receptor (B1R) of the rat (Rattus norvegicus, UniProt P97583)
- Construct: expressed in transfected cells; host or cells: CHO K1 cells
- Sequence (P97583 1-337): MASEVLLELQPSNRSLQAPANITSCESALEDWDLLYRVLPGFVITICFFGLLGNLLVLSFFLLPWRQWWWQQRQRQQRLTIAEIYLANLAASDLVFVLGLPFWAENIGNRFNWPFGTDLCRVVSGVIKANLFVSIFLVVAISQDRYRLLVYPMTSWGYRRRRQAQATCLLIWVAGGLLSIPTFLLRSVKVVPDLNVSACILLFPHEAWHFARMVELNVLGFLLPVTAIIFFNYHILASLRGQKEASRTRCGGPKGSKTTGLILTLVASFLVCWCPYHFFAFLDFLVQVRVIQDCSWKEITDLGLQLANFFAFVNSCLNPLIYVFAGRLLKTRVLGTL
- PROCEDURE DETAILS: Functional investigation on the rat bradykinin 1 receptor (B1R), Ca2+ FLIPR assay in CHO K1 rB1R cells
- Type: cell-based
- PARTICULARS: B1R antagonism rat; test substance 10 μM; Ca2+ FLIPR, CHO K1 rB1R cells
REPORTED PROPERTY: B1R Ant. r [10 μM] % Inhibition (%)

CN(C)C(c1cccc(F)c1)C1CCC(CNC(=O)COC2CCCN(S(=O)(=O)c3ccccc3)C2)CC1 (stereo not shown) [Example 309]; −2
COc1cc(C)c(S(=O)(=O)N(CCOCC(=O)NCC2CCC(C(c3ccc(Cl)cc3)N(C)C)CC2)Cc2ccccc2)c(C)c1C (stereo not shown) [Example 560]; −5
CN(C)C(c1ccc(F)cc1)C1CCC(NC(=O)COC2CCN(S(=O)(=O)c3ccc(Cl)cc3Cl)C2)CC1 (stereo not shown) [Example 290]; 37
COc1cc(C)c(S(=O)(=O)N(C)CCOCC(=O)NCC2CCC(C(c3ccc(F)cc3)N(C)C)CC2)c(C)c1 (stereo not shown) [Example 458]; 104
COc1ccc(S(=O)(=O)N(C)CCOCC(=O)NCCC2CCC(C(c3ccc(Cl)cc3)N(C)C)CC2)cc1OC (stereo not shown) [Example 339]; 31
COc1ccc(S(=O)(=O)N2CCCCC2COCC(=O)NC2CCC(C(c3cccs3)N(C)C)CC2)cc1 (stereo not shown) [Example 243]; 27
CN(C)C(c1ccc(Cl)cc1)C1CCC(CNC(=O)COC2CCN(S(=O)(=O)c3ccc(F)cc3)C2)CC1 (stereo not shown) [Example 394]; 21
CN(C)C(c1ccc(Cl)cc1)C1CCC(CCNC(=O)COCCN(Cc2ccccc2)S(=O)(=O)c2ccccc2)CC1 (stereo not shown) [Example 426]; 9
COc1cc(C)c(S(=O)(=O)N2CCC(OCC(=O)NCC3CCC(C(CCc4ccccc4)N(C)C)CC3)CC2)c(C)c1C (stereo not shown) [Example 546]; 59
CN(C)C(c1ccccc1)C1CCC(CNC(=O)COC2CCN(S(=O)(=O)c3ccc(F)cc3)C2)CC1 (stereo not shown) [Example 219]; 14
CN(C)C(c1cccc(F)c1)C1CCC(CNC(=O)COC2CCN(S(=O)(=O)c3ccccc3)C2)CC1 (stereo not shown) [Example 355]; 28
Cc1cc(C)c(S(=O)(=O)N2CCC(OCC(=O)NCCC3CCC(C(c4ccc(Cl)cc4)N(C)C)CC3)C2)c(C)c1 (stereo not shown) [Example 506]; 23
COc1cc(C)c(S(=O)(=O)N2CCC(OCC(=O)NC3CCC(C(c4cccc(F)c4)N(C)C)CC3)C2)c(C)c1 (stereo not shown) [Example 251]; 87
COc1cc(C)c(S(=O)(=O)N(CCOCC(=O)NCCC2CCC(C(c3ccc(F)cc3)N(C)C)CC2)Cc2ccccc2)c(C)c1C (stereo not shown) [Example 554]; −11
COc1cc(C)c(S(=O)(=O)N2CCC(OCC(=O)NCC3CCC(C(c4ccc(Cl)cc4)N(C)C)CC3)C2)c(C)c1 (stereo not shown) [Example 403]; 84
COc1cc(C)c(S(=O)(=O)N2CCC(OCC(=O)NCCC3CCC(C(c4ccc(Cl)cc4)N(C)C)CC3)CC2)c(C)c1C (stereo not shown) [Example 472]; 26
COc1cc(C)c(S(=O)(=O)N(CCOCC(=O)NCC2CCC(C(CCc3ccccc3)N(C)C)CC2)Cc2ccccc2)c(C)c1 (stereo not shown) [Example 542]; 45
CN(C)C(c1cccc(F)c1)C1CCC(NC(=O)COCCN(C)S(=O)(=O)c2ccc(Cl)cc2Cl)CC1 (stereo not shown) [Example 217]; 47
COc1cc(C)c(S(=O)(=O)N(CCOCC(=O)NC2CCC(C(c3ccc(F)cc3)N(C)C)CC2)Cc2ccccc2)c(C)c1C (stereo not shown) [Example 523]; 26
CN(C)C(c1cccc(F)c1)C1CCC(CNC(=O)COCCN(C)S(=O)(=O)c2cccc(C(F)(F)F)c2)CC1 (stereo not shown) [Example 302]; 0
CN(C)C(c1ccc(F)cc1)C1CCC(NC(=O)COCC2CCCN(S(=O)(=O)c3ccccc3)C2)CC1 (stereo not shown) [Example 478]; 23
COc1ccc(S(=O)(=O)N(C)CCOCC(=O)NCCC2CCC(C(c3ccc(F)cc3)N(C)C)CC2)cc1 (stereo not shown) [Example 519]; 44
CN(C)C(c1cccc(F)c1)C1CCC(CCNC(=O)COC2CCN(S(=O)(=O)c3ccccc3)C2)CC1 (stereo not shown) [Example 376]; 12
CN(C)C(c1cccc(F)c1)C1CCC(CNC(=O)COCCN(C)S(=O)(=O)c2ccc(OC(F)(F)F)cc2)CC1 (stereo not shown) [Example 303]; 29
CN(C)C(c1cccc(F)c1)C1CCC(NC(=O)COC2CCN(S(=O)(=O)c3ccccc3)C2)CC1 (stereo not shown) [Example 271]; −13
COc1ccc(S(=O)(=O)N2CCCCC2COCC(=O)NC2CCC(C(c3cccc(F)c3)N(C)C)CC2)cc1 (stereo not shown) [Example 255]; 47
COc1ccc(S(=O)(=O)N2CCCCC2COCC(=O)NCCC2CCC(C(c3ccc(Cl)cc3)N(C)C)CC2)cc1OC (stereo not shown) [Example 540]; 19
CN(C)C(c1ccc(F)cc1)C1CCC(NC(=O)COC2CCN(S(=O)(=O)c3ccc(Cl)cc3)C2)CC1 (stereo not shown) [Example 370]; 3

----------
Recorded inhibition at 10 µM values for a group of compounds are listed next.
- TARGET ENTITY: bradykinin 1 receptor (B1R) of the rat (Rattus norvegicus)
- Construct: expressed in transfected cells; host or cells: CHO K1 cells
- PROCEDURE DETAILS: Functional investigation on the rat bradykinin 1 receptor (B1R), Ca2+ FLIPR assay in CHO K1 rB1R cells
- Format: cell-based
- PARTICULARS: CHO-K1, B1R antagonism rat; test substance 10 μM; Ca2+ FLIPR, CHO K1 rB1R cells; read-out: B1R Ant. r [10 μM] % Inhibition
REPORTED PROPERTY: inhibition at 10 µM (%)

COc1cc(C)c(S(=O)(=O)N2CCC(OCC(=O)NC3CCC(C(CCc4ccccc4)N4CCOCC4)CC3)C2)c(C)c1 (centres unmarked); 64
CN(C)C(c1cccc(F)c1)C1CCC(CNC(=O)COCCN(C)S(=O)(=O)c2ccc(Cl)cc2Cl)CC1 (centres unmarked); 31
COc1ccc(S(=O)(=O)N2CCCCC2COCC(=O)NCC2CCC(C(c3cccs3)N(C)C)CC2)c(OC)c1 (centres unmarked); 23
O=C(COCC1CCCN(S(=O)(=O)c2c(Cl)cc(Cl)cc2Cl)C1)NCC1CCC(C(c2ccccc2)N2CCCC2)CC1 (centres unmarked); 100
O=C(COCC1CCCCN1S(=O)(=O)c1c(Cl)cc(Cl)cc1Cl)NC1CCC(C(CCc2ccccc2)N2CCOCC2)CC1 (centres unmarked); 56
COc1cc(C)c(S(=O)(=O)N2CCCCC2COCC(=O)NC2CCC(C(c3ccccc3)N3CCN(C)CC3)CC2)c(C)c1 (centres unmarked); 103
CN(C)C(c1cccs1)C1CCC(CCNC(=O)COCCN(C)S(=O)(=O)c2ccc(Cl)cc2)CC1 (centres unmarked); 21
COc1cc(C)c(S(=O)(=O)N2CCCCC2COCC(=O)NCC2CCC(C(CCc3ccccc3)N3CCCC3)CC2)c(C)c1 (centres unmarked); 102
O=C(COC1CCCN(S(=O)(=O)c2c(Cl)cc(Cl)cc2Cl)C1)NCC1CCC(C(CCc2ccccc2)N2CCCC2)CC1 (centres unmarked); 22
CN1CCN(C(c2ccccc2)C2CCC(NC(=O)COCCN(C)S(=O)(=O)c3ccc(Cl)cc3Cl)CC2)CC1 (centres unmarked); 39
COc1ccc(S(=O)(=O)N2CCCC2COCC(=O)NCCC2CCC(C(c3cccs3)N(C)C)CC2)cc1 (centres unmarked); 44
COc1cc(C)c(S(=O)(=O)N2CCN(CCOCC(=O)NC3CCC(C(c4cccc(F)c4)N(C)C)CC3)CC2)c(C)c1C (centres unmarked); -7
COc1ccc(S(=O)(=O)N(C)CCOCC(=O)NCC2CCC(C(c3cccs3)N(C)C)CC2)cc1OC (centres unmarked); 21
CN(CCOCC(=O)NC1CCC(C(c2ccccc2)N2CCOCC2)CC1)S(=O)(=O)c1c(Cl)cc(C(F)(F)F)cc1Cl (centres unmarked); 39
